assay: Cytotoxicity against human HCT116-p53-null cells assessed as reduction in cell viability incubated for 72 hrs by MTS assay; type: functional, cell-based
A collection of molecules and their measured IC50

# Item Smiles, IC50
rows = [
    ("CC1(C)C=C2[C@H]3CC[C@@H]4[C@@]5(C)Cc6nccnc6C(C)(C)[C@@H]5CC[C@@]4(C)[C@]3(C)CC[C@@]2(C(=O)O)CC1", "> 50 µM"),
    ("C=C(C)[C@@H]1CC[C@]2(C(=O)OCc3cn([C@H]4O[C@H](COC(C)=O)[C@@H](OC(C)=O)[C@H](OC(C)=O)[C@H]4OC(C)=O)nn3)CC[C@]3(C)[C@H](CC[C@@H]4[C@@]5(C)CC[C@H](O)C(C)(C)[C@@H]5CC[C@]43C)[C@@H]12", "> 50 µM"),
    ("CC1(C)CC[C@]23CC[C@]4(C)[C@H](CC[C@@H]5[C@@]6(C)CCC(=O)C(C)(C)[C@@H]6CC[C@]54C)[C@H]2[C@H]1OC3", "> 50 µM"),
]
